B1: library; numbered along this chain (parent)
chain: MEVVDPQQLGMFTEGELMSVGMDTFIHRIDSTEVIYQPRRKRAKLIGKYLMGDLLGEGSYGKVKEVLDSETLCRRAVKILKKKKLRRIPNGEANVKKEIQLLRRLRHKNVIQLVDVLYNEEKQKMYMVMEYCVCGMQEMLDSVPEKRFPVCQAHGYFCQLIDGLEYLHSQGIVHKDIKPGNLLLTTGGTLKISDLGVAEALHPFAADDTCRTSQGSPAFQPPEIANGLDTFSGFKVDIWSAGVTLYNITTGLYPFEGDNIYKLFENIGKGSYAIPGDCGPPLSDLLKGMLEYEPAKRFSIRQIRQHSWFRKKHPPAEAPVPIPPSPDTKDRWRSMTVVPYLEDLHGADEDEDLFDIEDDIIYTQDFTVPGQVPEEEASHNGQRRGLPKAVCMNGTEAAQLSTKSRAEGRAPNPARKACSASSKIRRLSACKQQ

Variants of: B1
assay protocol: STK11 functional score (HeLa growth suppression), rescaled enrichment; synonymous median = 1, nonsense median = 0 (normalised score)
conditions used: with HeLa; variant type: missense
Classification field: enter Satisfied for STK11 functional score values not below 0.4, Not satisfied for values below it.

Worked set:
• E70D = Satisfied
• E317I = Satisfied
• P179W = Not satisfied
• P323E = Satisfied
• N259H = Satisfied
• Y131E = Not satisfied
• K178E = Not satisfied
• K124D = Satisfied

Item L140Y with STK11 functional score of 0.4 or above?
Not satisfied

Entry to check: T71S
Satisfied

// query: L9W
Satisfied

Another: V110M
Not satisfied
